measurement_description: physchem
Assay type: physicochemical
test_context: oil or lipid, thermodynamic from solid; 32° C., 48 h equilibration (Table 3); read-out: Light mineral oil solubility
measurement_type: solubility at 48 h (mM)
Lab book: enter the figure in mM, no units written.

Inquiry: What value of solubility at 48 h has been recorded for this entry: CC1NC(C)(C)COC1(O)c1cccc(Cl)c1 (racemic) [Compound 4]
Reply text: 4.04

---

measurement_description: physchem
Format: physicochemical
test_context: aqueous buffer, thermodynamic from solid; pH 7.4, 32° C., 30 min sonication; read-out: Hanks' buffer solubility
measurement_type: solubility at 30 min (mM)
Lab book: enter the figure in mM, no units written.

Inquiry: What value of solubility at 30 min has been recorded for this entry: CC1NC(C)(C)COC1(O)c1cccc(Cl)c1 (racemic)
Reply text: 3.85
